# measurementTarget: T1, Axl protein (human, UniProt P30530 26-451)
# T1 construct: extracellular domain; also called human Axl; hAxl
# T1 sequence (looked up): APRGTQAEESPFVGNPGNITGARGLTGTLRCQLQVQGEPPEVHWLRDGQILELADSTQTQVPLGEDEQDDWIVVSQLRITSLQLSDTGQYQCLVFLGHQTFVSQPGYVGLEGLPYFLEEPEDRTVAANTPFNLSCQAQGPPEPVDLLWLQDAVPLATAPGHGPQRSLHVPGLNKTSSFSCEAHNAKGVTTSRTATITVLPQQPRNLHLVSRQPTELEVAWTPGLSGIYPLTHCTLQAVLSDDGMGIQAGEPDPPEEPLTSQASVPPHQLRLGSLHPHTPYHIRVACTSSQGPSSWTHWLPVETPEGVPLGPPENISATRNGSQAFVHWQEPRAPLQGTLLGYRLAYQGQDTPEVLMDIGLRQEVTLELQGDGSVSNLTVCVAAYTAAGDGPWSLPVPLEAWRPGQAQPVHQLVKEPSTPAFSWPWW
# testDetails: ELISA, 1:9 dilution, pH 6.0 over pH 7.4
Measured Affinity ELISA CPE mutant ratio (1:9, pH 6.0/7.4), listed per entry for reference.
Output spec: scalar in ratio, unitless text.

Look over these answered cases.
binder | reading
HC-T033I (antibody, V domains shown) VH: EVQLVQSGAEVKKPGATVKISCKVSGYSFTGHIMNWIRQPPGKGLEWIGLIKPSNGGTSYNQKFKGRVTISADKSISTAYLQWSSLKASDTAMYYCAHGHYESYFAMDYWGQGTLVTVSS VL: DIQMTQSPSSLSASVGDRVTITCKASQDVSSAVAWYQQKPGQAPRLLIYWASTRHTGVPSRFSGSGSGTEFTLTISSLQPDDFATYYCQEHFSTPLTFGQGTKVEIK | 1
HC-H100E (antibody, V domains shown) VH: EVQLVQSGAEVKKPGATVKISCKVSGYSFTGHTMNWIRQPPGKGLEWIGLIKPSNGGTSYNQKFKGRVTISADKSISTAYLQWSSLKASDTAMYYCAHGEYESYFAMDYWGQGTLVTVSS VL: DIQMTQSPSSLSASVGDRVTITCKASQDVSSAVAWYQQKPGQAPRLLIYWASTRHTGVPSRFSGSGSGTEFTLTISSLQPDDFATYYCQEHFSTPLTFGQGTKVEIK | 3.62

Field: next binder
Q. Please look up its Affinity ELISA CPE mutant ratio (1:9, pH 6.0/7.4): HC-E102N (antibody, V domains shown) VH: EVQLVQSGAEVKKPGATVKISCKVSGYSFTGHTMNWIRQPPGKGLEWIGLIKPSNGGTSYNQKFKGRVTISADKSISTAYLQWSSLKASDTAMYYCAHGHYNSYFAMDYWGQGTLVTVSS VL: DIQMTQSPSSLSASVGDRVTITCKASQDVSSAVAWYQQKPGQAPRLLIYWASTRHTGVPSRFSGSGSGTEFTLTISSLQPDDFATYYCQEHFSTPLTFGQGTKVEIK
A. 1.57
